System: NCI-H23 lung
PROCEDURE_TEXT: NCI tumour cell line growth inhibition, 48 h

- COMPOUND: "COc1cc(C[C@H]2COC(=O)[C@]2(O)Cc2ccc(OCc3ccccc3)c(OC)c2)ccc1OCc1ccccc1"
  TGI: "> 100 µM"
- COMPOUND: "O=S1(=O)OCCOS(=O)(=O)C1(F)Cc1ccccc1"
  TGI: "> 100 µM"
- COMPOUND: "COC1CCCc2c(OC(C)=O)ccc(OC(C)=O)c21 (stereo not drawn)"
  TGI: "> 100 µM"
- COMPOUND: "O=C(N/N=C\\c1ccc(Cl)cc1)Nc1ccc2ccccc2c1"
  TGI: "> 100 µM"
- COMPOUND: "COc1ccc(C2=Nn3c(nnc3-c3ccc(F)c(Cl)c3)SC2)cc1"
  TGI: "> 100 µM"
- COMPOUND: "O=C1C=C(NCCc2ccc(O)c([N+](=O)[O-])c2)C(=O)c2[nH]cnc21"
  TGI: "45 µM"
- COMPOUND: "Nc1cc(CO)cc(Nc2c3ccccc3nc3ccccc23)c1"
  TGI: "30.1 µM"
- COMPOUND: "COc1ccc(-n2cc(-c3cc(OC)c(OC)c(OC)c3)nc2SCc2cccc(C#N)c2)cc1OC"
  TGI: "> 100 µM"
- COMPOUND: "Nc1nnc(N)n1N"
  TGI: "> 100 µM"
- COMPOUND: "COc1ccc2c(c1OC)C(=O)C2"
  TGI: "> 100 µM"
- COMPOUND: "Cc1nc(-n2nc(-c3ccccc3)cc2-c2ccccc2)sc1C(=O)CC(=O)C(=O)Nc1ccc(Cl)c(Cl)c1"
  TGI: "> 100 µM"
- COMPOUND: "CCOC(=O)NC(Nc1ccc(F)cc1F)(C(F)(F)F)C(F)(F)F"
  TGI: "> 100 µM"
- COMPOUND: "CC(=O)OCC1OC(n2c(C)c(C)cc(C#N)c2=S)C(OC(C)=O)C(OC(C)=O)C1OC(C)=O (stereo not drawn)"
  TGI: "> 100 µM"

----------
List of TGI values.
Tested on: HCT-116 colon
PROCEDURE_TEXT: NCI tumour cell line growth inhibition, 48 h

- MOLECULE: "CCCCC[C@@H]1CCCC2NC(CCCCCO[Si](c3ccccc3)(c3ccccc3)C(C)(C)C)CCC21 (stereo partly specified)"
  CMP: "="
  TGI [µM]: 23.7
- MOLECULE: "O=C1/C(=C/c2ccc(F)cc2)COc2ccc(O)c(O)c21"
  CMP: "="
  TGI [µM]: 4.98
- MOLECULE: "O=C(CSSCC(=O)c1ccc(Cl)cc1)c1ccc(Cl)cc1"
  CMP: "="
  TGI [µM]: 14.8
- MOLECULE: "COc1cc(/C=C/C(=O)CC(=O)/C=C/c2cc(C)c(O)c(OC)c2)cc(C)c1O"
  CMP: ">"
  TGI [µM]: 100
- MOLECULE: "Cc1[nH]n(-c2nc(-c3ccccc3)cc(=O)[nH]2)c(=O)c1CCO"
  CMP: ">"
  TGI [µM]: 100
- MOLECULE: "N#CN1CC[C@@H]2CC3(CCC2C1)OCCO3 (stereo partly specified)"
  CMP: ">"
  TGI [µM]: 100
- MOLECULE: "COc1ccc2nc3cc(Cl)ccc3c(Nc3ccccc3-c3ccccc3Nc3c4ccc(Cl)cc4nc4ccc(OC)cc34)c2c1"
  CMP: ">"
  TGI [µM]: 100
- MOLECULE: "CCC1c2[nH]c3ccccc3c2C[C@H]2C(=O)NC(C)C(=O)N12 (stereo partly specified)"
  CMP: ">"
  TGI [µM]: 100
- MOLECULE: "CCC1(O)C(=O)OCc2c1cc1n(c2=O)Cc2cc3cc4c(cc3nc2-1)OCO4 (stereo unspecified)"
  CMP: "="
  TGI [µM]: 0.108
- MOLECULE: "COc1cc2c(cc1OC)C(CCN)=NCC2"
  CMP: "="
  TGI [µM]: 33.7
- MOLECULE: "CC(C)(C)OC(=O)N(CCCCN(CCCn1c2c(c3ccccc3c1=O)C(=O)c1ccccc1-2)C(=O)OC(C)(C)C)CCCn1c2c(c3ccccc3c1=O)C(=O)c1ccccc1-2"
  CMP: ">"
  TGI [µM]: 100
